STUDY SYSTEM: recombinant human plasminogen activator inhibitor-1 (PAI-1) (Homo sapiens, UniProt P05121)
TEST SUMMARY: Screening for PAI-1 inhibition (chromogenic tPA activity assay, Spectrozyme-tPA)
TEST SETTINGS: footnote b: IC50 determined by a modification of the Primary Screen for PAI-1 Inhibition
pIC50: −log10 of the molar value.
We begin with a simple list: items and their reported pIC50.
METRIC NAME: pIC50

>>> df
                           substance_smiles  metric_name  reported_value
0  C/C(=N\OCCOc1ccc(C(=O)O)cc1Cl)c1ccc(C(C)(C)C)cc1        pIC50            4.95
1  O=C(Nc1cc(OCCCO/N=C/c2ccc(-c3ccccc3)cc2)ccc1C(=O)O)c1ccc(C(F)(F)F)cc1        pIC50            4.59
2  CC(C)(C)c1ccc(/C=N/OCCOc2ccc(C(=O)O)c(OC(=O)c3ccccc3)c2)cc1        pIC50            5.08
3  COc1ccc(C(=O)Oc2cc(OCCO/N=C/c3ccc(C(C)(C)C)cc3)ccc2C(=O)O)cc1        pIC50            4.59
4  C/C(=N\OCCOc1ccc(C(=O)O)c(O)c1)c1ccc(C(C)(C)C)cc1        pIC50            4.69
5  CC(C)(C)c1ccc(/C=N/OCCCOc2ccc(C(=O)O)c(NC(=O)c3ccc(C(C)(C)C)cc3)c2)cc1        pIC50            4.73

----------
STUDY SYSTEM: human PAI-1 (Homo sapiens, UniProt P05121)
Sequence (P05121 24-402): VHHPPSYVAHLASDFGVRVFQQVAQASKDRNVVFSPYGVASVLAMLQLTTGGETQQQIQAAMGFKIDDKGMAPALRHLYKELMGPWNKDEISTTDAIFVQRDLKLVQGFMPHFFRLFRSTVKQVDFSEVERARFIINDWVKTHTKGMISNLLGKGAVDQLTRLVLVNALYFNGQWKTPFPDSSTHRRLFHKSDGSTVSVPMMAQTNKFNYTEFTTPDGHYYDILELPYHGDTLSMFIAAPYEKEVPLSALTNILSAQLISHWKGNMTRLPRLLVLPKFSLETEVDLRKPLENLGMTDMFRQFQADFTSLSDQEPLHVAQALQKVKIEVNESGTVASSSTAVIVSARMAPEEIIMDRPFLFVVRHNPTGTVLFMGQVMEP
pIC50: −log10 of the molar value.
# binarize pIC50: threshold 5 inclusive, high side yes, low side no

>>> print(df.to_string())
                           substance_smiles  group_label
0  CC(C)(C)c1ccc(C=NOCCCOc2ccc(CC(=O)O)cc2)cc1           no
1  C/C(=N\OCCOc1ccc(C(=O)O)c(OC(=O)c2ccc(-c3ccccc3)cc2)c1)c1ccccc1           no
2  CC(=NOCCOc1ccc(C(=O)O)c(OC(=O)c2ccc(C(C)(C)C)cc2)c1)c1ccccc1           no
3  O=C(O)c1ccc(OCCCO/N=C/c2cc(C(F)(F)F)cc(C(F)(F)F)c2)cc1O          yes
4  CC/C(=N\OCCCOc1ccc(C(=O)O)c(NC(=O)c2ccc(C(F)(F)F)cc2)c1)c1ccc(C(C)(C)C)cc1           no

----------
STUDY SYSTEM: recombinant human plasminogen activator inhibitor-1 (PAI-1) (Homo sapiens, UniProt P05121)
Construct: purchased Molecular Innovations, Royal Oak, Mich
TEST SUMMARY: Screening for PAI-1 inhibition (chromogenic tPA activity assay, Spectrozyme-tPA)
Format: biochemical
TEST SETTINGS: PAI-1 inhibition at 25 μM test compound; pH 6.6 buffer, 140 nM PAI-1, 70 nM tPA
We begin with a simple list: items and their reported inhibition at 25 µM.
METRIC NAME: inhibition at 25 µM (%)

In [3]: df
Out[3]:
                                   compound          metric_name  reported_value
0  CC(=NOCc1ccc(CC(=O)O)cc1)c1ccc(C(C)(C)C)cc1 [Compound 2]  inhibition at 25 µM              30
1  CC(C)(C)c1ccc(C=NOCc2ccc(CC(=O)O)cc2)cc1 [Compound 3]  inhibition at 25 µM              19
2  CC(C)(C)c1ccc(/C=N/OCCCOc2ccc(C(=O)O)c(NC(=O)c3ccc(-c4ccccc4)cc3)c2)cc1 [Compound 36]  inhibition at 25 µM              23
3  CC(C)(C)c1ccc(/C=N/OCCCOc2ccc(CCC(=O)O)cc2)cc1 [Compound 16]  inhibition at 25 µM              42
4  C/C(=N\OCCCOc1ccc(C(=O)O)c(NC(=O)c2ccc(C(F)(F)F)cc2)c1)c1ccccc1 [Compound 23]  inhibition at 25 µM              26
5  O=C(Nc1cc(OCCCO/N=C/c2cc(C(F)(F)F)cc(C(F)(F)F)c2)ccc1C(=O)O)c1ccc(OC(F)(F)F)cc1 [Compound 28]  inhibition at 25 µM              51
6  O=C(Nc1cc(OCCCO/N=C/c2ccc(-c3ccccc3)cc2)ccc1C(=O)O)c1ccc(OC(F)(F)F)cc1 [Compound 29]  inhibition at 25 µM              70
7  CC(C)(C)c1ccc(C=NOCCOc2ccc(C(=O)O)c(O)c2)cc1 [Compound 7]  inhibition at 25 µM              33
